Source: patent US20250011363A1

System: acetylcholine receptor
Method description: SPR, AchR immobilized on CM5 chip, peptide 10 uM
Quantity: Binding affinity (RU)

binder="KKTMVR [6mer-1-743]" quantity="Binding affinity (RU)" result=14
binder="RRTHER [6mer-1-734]" quantity="Binding affinity (RU)" result=21
binder="KKSQCR [6mer-1-344]" quantity="Binding affinity (RU)" result=125
